target: Neu5Ac(a2-6)Gal(b1-4)GlcNAc(b1-3)Gal(b1-4)GlcNAc(b1-3)[Neu5Ac(a2-6)Gal(b1-4)GlcNAc(b1-3)Gal(b1-4)GlcNAc(b1-6)]GalNAc; assay: glycan array binding signal (z-score within array); higher = stronger binding; conditions: glycan notation: IUPAC condensed, linker removed
The full list was thinned out, with the strongest signals kept by preference.
Reported glycan array binding signal (z-score) values are given for each entry in this list.

CFEM-SCL (Saccharomyces cerevisiae), O13547 (protein) MRATTLLSSVVSLALLSKEVLATPPACLLACVAQVGKSSSTCDSLNQVTCYCEHENSAVKKCLDSICPNNDADAAYSAFKSSCSEQNASLGD : -0.146

Query string: # lookup: glycan array binding signal (z-score) of DrGal3 (Danio rerio) (protein) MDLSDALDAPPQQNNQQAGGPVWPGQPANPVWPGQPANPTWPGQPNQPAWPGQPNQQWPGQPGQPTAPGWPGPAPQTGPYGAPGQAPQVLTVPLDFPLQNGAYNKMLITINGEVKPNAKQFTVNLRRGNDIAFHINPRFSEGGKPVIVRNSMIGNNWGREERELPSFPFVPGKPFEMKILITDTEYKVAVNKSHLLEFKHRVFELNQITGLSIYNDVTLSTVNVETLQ
Result string: -0.107

Query string: # lookup: glycan array binding signal (z-score) of Nc3LysM (protein) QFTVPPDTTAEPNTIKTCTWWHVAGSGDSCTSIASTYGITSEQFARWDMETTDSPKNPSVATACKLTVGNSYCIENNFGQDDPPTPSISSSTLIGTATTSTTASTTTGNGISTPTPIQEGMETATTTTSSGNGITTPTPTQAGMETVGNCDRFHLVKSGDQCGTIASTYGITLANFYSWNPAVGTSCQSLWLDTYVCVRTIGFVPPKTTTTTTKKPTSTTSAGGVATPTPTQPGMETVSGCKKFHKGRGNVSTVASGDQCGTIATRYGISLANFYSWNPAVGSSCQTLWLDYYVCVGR
Result string: 0.111
